Target: SUMO-conjugating enzyme UBC9 (Homo sapiens)
Assay: blockers of UBC9-mediated SUMO conjugation – biochemical, AlphaScreen, SUMOylation inhibitor project, confirmation (AID 2018)
Details: AlphaScreen in vitro SUMOylation assay; at 35 µM; hits give high values
Hit rate of the full screen: of about 1,200 compounds, about 600 (50%) were called active. The set was probably picked from earlier hits. The list shows a part of the results. Measured potencies and affinities stand elsewhere.
QUANTITY KIND: inhibition (%)
Reply numerically in %, unit not repeated.

- COMPOUND: "CN(CCC#N)C(=O)COC(=O)c1c2c(nc3ccccc13)/C(=C/c1ccco1)CC2"
  ENDPOINT UNIT: "%"
  OBSERVED RESULT: 43.2

compound N#Cc1c(N(CCO)CCO)nc(N)c2c(N)nc3c(c12)CC(=O)N3CC1CCCO1 (stereo not given) , inhibition observed: 26

compound COc1cc([N+](=O)[O-])cc(/C=N/NC(=O)C(C)Nc2cccc3ccccc23)c1O (stereo not given) , inhibition observed: -212

compound CCOC(=O)C1=C(C)NC(=O)CC1c1cc2c(cc1[N+](=O)[O-])OCO2 (stereo not given) , inhibition observed: 14.6

compound "CCCN(CC1CC1)c1nc(N)c2c(N)nc(OC)cc2c1C#N" , inhibition observed: 16.9

compound "O=C(NC1(O)C(=O)c2ccccc2C1=O)c1ccccc1" , inhibition observed: 101

compound "O=C1N=c2ccccc2=C1c1c(O)n(-c2cccc(F)c2)[nH]c1=O" , inhibition observed: 12

compound "CC(=O)c1ccc(NC(=O)Nc2cccnc2)cc1" , inhibition observed: -7.1

compound "O=c1c2ccccc2nc2n1CCC2" , inhibition observed: 97.9

---

Biological target: SUMO-conjugating enzyme UBC9 (Homo sapiens) (UniProt P63279)
Sequence (P63279 whole entry, looked up): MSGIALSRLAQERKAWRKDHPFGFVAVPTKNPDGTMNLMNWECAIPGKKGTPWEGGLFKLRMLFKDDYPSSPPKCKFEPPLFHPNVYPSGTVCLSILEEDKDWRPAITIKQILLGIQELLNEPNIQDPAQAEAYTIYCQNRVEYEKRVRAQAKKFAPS
Test: blockers of UBC9-mediated SUMO conjugation – biochemical, AlphaScreen, SUMOylation inhibitor project, confirmation (AID 2018)
Conditions: AlphaScreen in vitro SUMOylation assay; at 35 µM
The campaign covered roughly 1,200 compounds. About 600 (50%) were called active. Cut-off read from the data, not from the text of the source: active = inhibition above about 42%; inactive = the rest. So high a share suggests a set chosen from earlier hits. This is one part of the list. Measured potencies and affinities stand elsewhere.
I would appreciate it if you answered using one of these outcomes: active, inactive

Some solved entries appear below for comparison.
- MOLECULE: "O=[N+]([O-])c1cc([N+](=O)[O-])c2nonc2c1Nc1ccc(O)cc1"
  QUALITATIVE LABEL: "inactive"
- MOLECULE: "Cc1cc(-c2csc(N)n2)c(C)n1Cc1ccco1"
  QUALITATIVE LABEL: "inactive"
- MOLECULE: "O=C1C(NS(=O)(=O)c2cccs2)=C(N2CCN(c3cccc(C(F)(F)F)c3)CC2)C(=O)c2ccccc21"
  QUALITATIVE LABEL: "active"

Q: Outcome? "O=C1C(=O)c2ccccc2C(O)=C1CCCCl"
A: active

Q: Outcome? "COc1ccc(-c2cc(-c3ccccc3)n3ncnc3n2)cc1"
A: inactive

Q: Outcome? "CCCCn1c(=O)[nH]c2nc3cc(N)ccc3nc2c1=O"
A: inactive

Q: Outcome? "CC(C)c1onc(C(=O)N2CCC(C(N)=O)CC2)c1[N+](=O)[O-]"
A: inactive

Q: Outcome? "Oc1ccc(NCc2cccc(OCc3ccccc3)c2)cc1"
A: active

Q: Outcome? "COc1ccc(Br)cc1CNc1ccc(O)cc1"
A: active

Q: Outcome? "C/C(=C\C(=S)Nc1ccccc1)Nc1cccc2ccccc12"
A: inactive

Q: Outcome? COC(=O)C1C(O)=C(C(C)=Nc2cccc3ccccc23)C(=O)CC1(C)C (configuration not stated)
A: inactive

Q: Outcome? Cc1ccc(NC2=CC(=O)CC(c3ccco3)C2)c(N)c1 (configuration not stated)
A: inactive

---

# Lookup of reported inhibition keyed by entry
Target: SUMO-conjugating enzyme UBC9 (Homo sapiens)
Experiment: blockers of UBC9-mediated SUMO conjugation – biochemical, AlphaScreen, SUMOylation inhibitor project, confirmation (AID 2018)
Conditions: AlphaScreen in vitro SUMOylation assay; at 35 µM; hits give high values
Screen size: about 1,200 compounds; about 600 (50%) were called active. So high a share suggests a set chosen from earlier hits. Some of the results follow. Entries with a potency or affinity are not part of this list.
Reply numerically in %, unit not repeated.

Please review the following examples before continuing.
- COMPOUND: "CC(Nc1cccc2ccccc12)C(=O)N/N=C/c1ccccn1 (stereo not drawn)"
  inhibition [%]: -4.4
- COMPOUND: "Nc1ccc2oc(-c3cccs3)nc2c1"
  inhibition [%]: -13.9
- COMPOUND: "COc1ccc(/C=C2/C(=O)N(c3ccccc3)N=C2C)cc1OC"
  inhibition [%]: 38.1

Item "COc1cc(/C=C2/C(=O)N(c3ccccc3)N=C2C)ccc1OS(=O)(=O)c1ccccc1" was tested on SUMO-conjugating enzyme UBC9 (Homo sapiens); the reported inhibition is 91.3

Item "COc1ccc(C=Nc2cccc3ncccc23)cc1" was tested on SUMO-conjugating enzyme UBC9 (Homo sapiens); the reported inhibition is 16.5

Item "[O-]/C(=C(\C(=S)Nc1cccc2ccccc12)[n+]1cccc(CO)c1)c1ccc(Cl)s1" was tested on SUMO-conjugating enzyme UBC9 (Homo sapiens); the reported inhibition is 31.7

---

Molecular target: SUMO-conjugating enzyme UBC9 (Homo sapiens) (UniProt P63279)
Assay: blockers of UBC9-mediated SUMO conjugation – biochemical, AlphaScreen, SUMOylation inhibitor project, confirmation (AID 2018)
Details: AlphaScreen in vitro SUMOylation assay; at 35 µM
In all, about 1,200 compounds went through this assay and about 600 (50%) were called active. Cut-off read from the data, not from the text of the source: active = inhibition above about 42%; inactive = the rest. So high a share suggests a set chosen from earlier hits. Some of the results follow. Results with a measured potency or affinity are listed apart.
I would appreciate it if you answered using one of these outcomes: Yes = active, No = inactive

- MOLECULE: "COC12NC(=O)N(C)C1(OC)C(=O)N(C)C(=O)N2C (configuration not stated)"
  QUALITATIVE LABEL: "No"
- MOLECULE: "O=C1CCN(c2ncccc2[N+](=O)[O-])CC1"
  QUALITATIVE LABEL: "No"
- MOLECULE: "CCOc1cc(CNc2ccccc2SC)ccc1O"
  QUALITATIVE LABEL: "Yes"
- MOLECULE: "COc1ccccc1NC(=O)Cn1nc(C)n2cccc2c1=O"
  QUALITATIVE LABEL: "No"
- MOLECULE: "CCOc1cc(CNc2ccc(N3CCN(C(C)=O)CC3)cc2)cc(Br)c1OC"
  QUALITATIVE LABEL: "Yes"
- MOLECULE: "Cc1[nH][nH]c(=O)c1C(c1c(C)[nH][nH]c1=O)c1cn(C)c2ccccc12"
  QUALITATIVE LABEL: "Yes"
- MOLECULE: "COCCn1c(N)c(C#N)c2nc3ccccc3nc21"
  QUALITATIVE LABEL: "No"
- MOLECULE: "Nc1ccc2nn(-c3ccccc3)nc2c1"
  QUALITATIVE LABEL: "Yes"
- MOLECULE: "Cc1ccc(C(=O)N[C@H](C(=O)Nc2cc(Cl)cc(Cl)c2)C(C)C)cc1"
  QUALITATIVE LABEL: "No"
- MOLECULE: "Cc1nn(-c2ccccn2)c2c1C(=O)C(Br)CC2 (configuration not stated)"
  QUALITATIVE LABEL: "Yes"

Q: Outcome? "O=C(Nc1cccnc1)c1cc2cc(Br)ccc2oc1=O"
A: No

Q: Outcome? "Cc1ccc2[nH]c3c(c2c1)CN(C(=O)CN1CCN(c2cccc(C)c2C)CC1)CC3"
A: No

---

Biological target: SUMO-conjugating enzyme UBC9 (Homo sapiens) (UniProt P63279)
Experiment: blockers of UBC9-mediated SUMO conjugation – biochemical, AlphaScreen, SUMOylation inhibitor project, confirmation (AID 2018)
Conditions: AlphaScreen in vitro SUMOylation assay; at 35 µM; hits give high values
Among all 1,200 compounds or so, about 600 (50%) were called active. So high a share suggests a set chosen from earlier hits. Some of the results follow. Results with a measured potency or affinity are listed apart.
QUANTITY KIND: inhibition (%)
Reply numerically in %, unit not repeated.

Please review the following examples before continuing.
- COMPOUND: "CCc1cc2c(=O)c(Oc3ccccc3F)c(C)oc2c(CN(C)C)c1O"
  TARGET ENTITY: "SUMO-conjugating enzyme UBC9 (Homo sapiens) (UniProt P63279)"
  ENDPOINT UNIT: "%"
  inhibition: -4.3
- COMPOUND: "Cc1sc2nc3ccc(NCc4ccco4)nn3c(=O)c2c1C"
  TARGET ENTITY: "SUMO-conjugating enzyme UBC9 (Homo sapiens) (UniProt P63279)"
  ENDPOINT UNIT: "%"
  inhibition: 0.9
- COMPOUND: "CC(=O)Nc1ccc(S(=O)(=O)Nc2cccn(Cc3ccc(C)cc3)c2=O)cc1"
  TARGET ENTITY: "SUMO-conjugating enzyme UBC9 (Homo sapiens) (UniProt P63279)"
  ENDPOINT UNIT: "%"
  inhibition: 1.7
- COMPOUND: "CCOC(=O)N1CCC(c2cc(=O)n(-c3ccccc3)[nH]2)CC1"
  TARGET ENTITY: "SUMO-conjugating enzyme UBC9 (Homo sapiens) (UniProt P63279)"
  ENDPOINT UNIT: "%"
  inhibition: 16.1
- COMPOUND: "Cn1c(-c2ccc(C=O)s2)nc2ccccc21"
  TARGET ENTITY: "SUMO-conjugating enzyme UBC9 (Homo sapiens) (UniProt P63279)"
  ENDPOINT UNIT: "%"
  inhibition: 14.4

Item "CCOc1cc(NC(=S)NCc2ccco2)c(OCC)cc1NC(=O)CC" was tested on SUMO-conjugating enzyme UBC9 (Homo sapiens) (UniProt P63279); the reported inhibition is -0.7

Item Cc1ccc(C(=O)NC(C)c2nc3ccccc3n2CC(=O)Nc2c(C)cc(C)cc2C)cc1 (stereo unspecified) was tested on SUMO-conjugating enzyme UBC9 (Homo sapiens) (UniProt P63279); the reported inhibition is 5.3

Item Cc1ccc(N2CSC3=C(C#N)C(c4cccs4)CC(=O)N3C2)cc1 (stereo unspecified) was tested on SUMO-conjugating enzyme UBC9 (Homo sapiens) (UniProt P63279); the reported inhibition is 38.3
